experiment: Caco-2 permeability; assay type: in vitro ADME; details: human
Below: a set of entries, each annotated with reported Papp at 90 min, 5 μM.
Number plus unit, in that order.

C/C(=N\NC(=S)N(C)C)c1ccccn1	7.3 ×10⁻⁶ cm/s
C/C(=N\Nc1nc2ccccc2o1)c1ccccn1	10.6 ×10⁻⁶ cm/s
C/C(=N\NC(=S)N1CCC1)c1ccccn1 [ZMC1, reference compound]	15.6 ×10⁻⁶ cm/s

# evaluate next
Measured Papp at 90 min, 5 μM, C/C(=N\Nc1nc2ccccc2s1)c1ccccn1 : 4.4 ×10⁻⁶ cm/s
